# System: U2OS
# test-description: Incucyte cell viability with U2OS; note: unitless GR value; below 1 slowed growth and below 0 cell loss
# Format: toxicity, cell-based
# protocol-conditions: human, 24 h, 10 µM, compound concentration 10 uM, replicate number 1
Documented Growth Rate across a set of compounds
endpoint-name: Growth Rate

>>> readout_number("CC(C)Oc1ccc(F)c(-c2cnc(N)c(C(=O)Nc3cnccc3N3CCC[C@@H](C(=O)O)C3)n2)c1")
0.84
>>> readout_number("CCC(=O)O[C@]1(C(=O)CCl)[C@@H](C)C[C@H]2[C@@H]3CCC4=CC(=O)C=C[C@]4(C)[C@@]3(F)[C@@H](O)C[C@@]21C [CLOBETASOL PROPIONATE]")
0.83
>>> readout_number("Cc1cc(C)nc(Nc2ncc(C(=O)NCCc3c(C)[nH]c4ccccc34)cn2)c1.Cl")
0.98
>>> readout_number("CCS(=O)(=O)c1ccc(OC)c(Nc2ncc(-c3cccc(F)c3)o2)c1 [GW621970X]")
0.94
>>> readout_number("CC[C@@H]1C(=O)N(C)c2cnc(Nc3ccc(C(=O)NC4CCN(C)CC4)cc3OC)nc2N1C1CCCC1")
0.08
>>> readout_number("CCC(=O)Nc1cc(Nc2cc(NC3CC3)n3ncc(C#N)c3n2)ccc1C")
0.44
>>> readout_number("COc1ccc(S(=O)(=O)N2CCOCC2)cc1Nc1ccc2c(n1)N(C1CCN(C)CC1)[C@H](C)C(=O)N2C")
0.45
>>> readout_number("CC(=O)N(CCN(C)C)c1ccc(N/C(=C2\\C(=O)Nc3cc(Cl)ccc32)c2ccccc2)cn1")
-0.14
>>> readout_number("Cc1cc(O)c(-c2ccc([C@@H](C)CN(C)C)cc2)c2c1[nH]c(=O)c1sccc12")
-0.11
>>> readout_number("Fc1ccc(Cl)cc1-c1nc(Nc2ccncc2)c2nccnc2n1")
0.95
>>> readout_number("CC(C)(C)c1cnc(CSc2cnc(NC(=O)C3CCN(CC(=O)NCCOCCOCCOCCNc4cccc5c4C(=O)N(C4CCC(=O)NC4=O)C5=O)CC3)s2)o1 (configuration not stated)")
-0.05
>>> readout_number("CN(C)CCC[C@@]1(c2ccc(F)cc2)OCc2cc(C#N)ccc21")
0.9
>>> readout_number("CC(=O)Nc1nc(C)c(S(=O)(=O)Nc2ccc(C(O)(C(F)(F)F)C(F)(F)F)cc2)s1")
0.79
>>> readout_number("COc1cc(-c2cc(-c3cccc(O)c3)cnc2N)cc(OC)c1OC")
0.75
>>> readout_number("CC1CNCCc2c1nc1ccnn1c2N1CC(C(=O)N2CCC(C)(C)C2)C1 (configuration not stated)")
0.98
>>> readout_number("Cc1cnc(Nc2ccc(C(=O)N3CCN(C)CC3)cc2)nc1N[C@@H]1CCC[C@@H]1C(N)=O")
0.34
>>> readout_number("Nc1ncnc2c1c(I)cn2[C@@H]1O[C@H](CO)[C@@H](O)[C@H]1O")
-0.26
>>> readout_number("O=C(Nc1ccc(-n2nc(C(F)(F)F)cc2C(F)(F)F)cc1)c1ccncc1F")
0.69
>>> readout_number("CCc1cc2c(cc1N1CCC(N3CCOCC3)CC1)C(C)(C)c1[nH]c3cc(C#N)ccc3c1C2=O")
0.91
>>> readout_number("CC(C)(C)c1cnc(CSc2cnc(NC(=O)C3CCNCC3)s2)o1")
0.05
>>> readout_number("C[C@@H]1C[C@H](C)CN(c2ncc(Cl)c(Nc3ccc4c(c3)cc(OC(C)(C)C(=O)O)c(=O)n4C)n2)C1")
0.78
>>> readout_number("Cc1cc(Nc2cc(N)ncn2)c(=O)n2c1C(=O)NC21CCCCC1")
0.88
>>> readout_number("O=C(N[C@@H]1C2CCN(CC2)[C@H]1Cc1cccnc1)c1cc2ccccc2o1")
0.93
>>> readout_number("O=C(O)C(F)(F)F.O=C1NC(=O)/C(=C/c2c[nH]c(=O)c(-c3ccc(N4CCNCC4)nc3)c2)S1")
0.96
>>> readout_number("CCCCCCCC/C=C\\CCCCCCCC(=O)NCCO [OLEOYLETHANOLAMIDE]")
0.79
>>> readout_number("CCn1ccc(Nc2ncc3c(n2)-c2c(nn(C)c2-c2ccc(-c4cnn(C)c4)cc2Cl)CC3)n1")
0.21
>>> readout_number("O=c1cccc2n1C[C@@H]1CNC[C@H]2C1")
0.99

* * *

# System: U2OS
# test-description: Incucyte cell viability with U2OS; note: unitless GR value; below 1 slowed growth and below 0 cell loss
# Format: toxicity, cell-based
# protocol-conditions: human, 12 h, 10 µM, compound concentration 10 uM, replicate number 1
Documented Growth Rate across a set of compounds
endpoint-name: Growth Rate

>>> readout_number("O=C(Nc1c[nH]nc1-c1nc2cc(CN3CCOCC3)ccc2[nH]1)NC1CC1")
0.31
>>> readout_number("C[C@H](CCC(=O)O)[C@H]1CC[C@H]2[C@@H]3CC[C@@H]4C[C@H](O)CC[C@]4(C)[C@H]3CC[C@]12C")
0.68
>>> readout_number("Cn1c(=O)n(CCCO)c(=O)c2c1nc(Oc1cccc(OC(F)(F)F)c1)n2Cc1ccc(Cl)cc1")
0.8

* * *

# Test system: HEK-293T
# test-description: Incucyte cell viability with HEK293T; note: unitless GR value; below 1 slowed growth and below 0 cell loss
# Type: toxicity, cell-based
# protocol-conditions: human, 0 h, 10 µM, compound concentration 10 uM, replicate number 2
endpoint-name: Growth Rate

>>> readout_number("COc1ccc(-n2nc(C(F)(F)F)cc2-c2ccc(Cl)cc2)cc1 [SC-560]")
0.61
>>> readout_number("C[C@@H]1OCC2(CCN(c3cnc(Sc4ccnc(N)c4Cl)c(N)n3)CC2)[C@@H]1N [BATOPROTAFIB]")
-0.24
>>> readout_number("O=C(O)CCCCCC[C@@H]1C(=O)NC(=O)N1CCC(O)C1CCCCC1 (stereo not given in full)")
0.52
>>> readout_number("Nc1nc2cc(-c3cc(Cl)ccc3Oc3cc(F)c(S(=O)(=O)Nc4ncns4)cc3F)ccc2[nH]1")
0.52
>>> readout_number("O=C(O)CNC(=O)c1c(O)c2ccccc2n(Cc2ccccc2)c1=O")
-0.1

* * *

Documented Growth Rate across a set of molecules
# Tested on: Fibroblast
# test-description: Incucyte cell viability with human fibroblast; note: unitless GR value; below 1 slowed growth and below 0 cell loss
# Assay type: toxicity, cell-based
# protocol-conditions: 18 h, 10 µM, compound concentration 10 uM, replicate number 2
endpoint-name: Growth Rate

>>> readout_number("O=C(N[C@H](Cc1ccccc1)C(=O)O)c1cccc(OCc2cccnc2)c1.O=CO")
0.81
>>> readout_number("CCCCC[C@H](O)/C=C/[C@H]1[C@H](O)CC(=O)[C@@H]1CCCCCCC(=O)O")
0.79
>>> readout_number("CN[C@@H](C)C(=O)N[C@H]1CN(C(=O)CC(C)C)CC[C@H]2CC[C@@H](C(=O)NC(c3ccccc3)c3ccccc3)N2C1=O")
0.78

* * *

# Test system: U2OS
# test-description: Incucyte cell viability with U2OS; note: unitless GR value; below 1 slowed growth and below 0 cell loss
# Type: toxicity, cell-based
# protocol-conditions: human, 6 h, 10 µM, compound concentration 10 uM, replicate number 1
endpoint-name: Growth Rate

>>> readout_number("CCc1nc(-c2cccc(C)c2)c(-c2ccnc(NC(=O)c3ccccc3)c2)s1")
0.63
>>> readout_number("CN1C(=O)c2ccccc2N(C)c2nc(Nc3cnn(C4CCNCC4)c3)ncc21")
-0.35
>>> readout_number("CP(C)(=O)c1ccc(CNC(=O)C2CCN(S(=O)(=O)c3cc(Cl)cc(Cl)c3)CC2)cc1")
0.37
>>> readout_number("O=C(Nc1ccc(Cl)c(-c2ccccn2)c1)c1cccc(COc2ccc(Br)cc2CNCCO)c1.O=CO")
0.38
>>> readout_number("Cc1nnc2n1-c1sc3c(c1C(c1ccccc1Cl)=NC2)CC(C(=O)N1CCOCC1)C3 (stereo not drawn)")
0.52
>>> readout_number("Cc1c[nH]c(-c2cnc(NCCNc3ccc(C#N)cn3)nc2-c2ccc(Cl)cc2Cl)n1")
0.47
>>> readout_number("CS(C)(=O)=Nc1ccc(-c2ccc(-c3nc4[nH]c(O[C@@H]5CO[C@H]6[C@@H]5OC[C@H]6O)nc4cc3Cl)cc2)cc1")
0.36
>>> readout_number("CC1(C)CC(CN2CCC(F)(CNC(=O)c3cc(Cl)cc(Cl)c3)CC2)CCO1 (stereo not drawn)")
0.71
>>> readout_number("CC(C)Oc1ccc(Cc2ccc(NC3=NCCN3)cc2)cc1")
0.1
>>> readout_number("O=C(O)c1ccc(-c2c[nH]c3ncc(-c4ccccc4)cc23)cc1C1CCCC1")
0.39
>>> readout_number("N#Cc1ccnc(Nc2cc(C3CCN(C4COC4)CC3)cc(N3CCC(F)(F)C3)n2)c1")
0.88
>>> readout_number("C[C@@H]1COCCN1c1cc(=O)n2c(n1)N(Cc1cncc(Cl)c1)[C@H](C(F)(F)F)CC2")
0.61
>>> readout_number("COc1cc(C)c(S(=O)(=O)N(C)CCC(=O)N[C@H]2CC[C@@H](N3CCC4CN(C)CC4C3)CC2)c(C)c1.Cl.Cl (stereo partly drawn)")
0.78
>>> readout_number("Cc1c(N2CCNCC2)nc2ccc(Br)cc2c1C(=O)NC[C@H](CCC(=O)O)c1ccccc1Cl")
0.58
>>> readout_number("N#Cc1ccc(C#CC[C@@H](C#N)NC(=O)[C@@H]2CCCCN2)cc1F")
0.57
>>> readout_number("Cc1sc(C(=O)c2cncnc2N[C@@H]2C[C@H](COS(N)(=O)=O)[C@@H](O)C2)cc1[C@@H]1NCCc2ccc(Cl)cc21")
0.59
>>> readout_number("CSc1ccc(C(=O)/C=C/c2cc(C)c(OC(C)(C)C(=O)O)c(C)c2)cc1")
0.88
>>> readout_number("O=C1NC(=Nc2c(Cl)cccc2Cl)S/C1=C\\c1ccc2nccnc2c1")
0.4
>>> readout_number("CCOCCn1cc(C(=O)Nc2ccc(-n3nc(-c4cccnc4)cc3C(F)(F)F)cn2)ccc1=O")
0.75
>>> readout_number("CCn1c(CNC(=O)c2nc(Cl)cnc2N)[n+](CC)c2ccc(C(=O)N(C)CCN(C)C)cc21.[Cl-]")
0.28
>>> readout_number("CCOC(=O)c1c(/C(C#N)=C\\N)c2ccc(Cl)c(Cl)c2n1C")
0.92
>>> readout_number("Cc1[nH]c2c(N3CCCCC3)c(-c3ccccc3)nn2c(=O)c1-c1ccc(O)cc1")
0.77
>>> readout_number("O=C1CCCN1CCNc1nc(Nc2ccc(Cl)c(Cl)c2)ncc1C(F)(F)F")
0.32
>>> readout_number("CCCCCCCC/C=C\\CCCCCCCC(=O)NCCO [OLEOYLETHANOLAMIDE]")
0.87
>>> readout_number("CC1CNCCc2c1nc1ccnn1c2N1CC(C(=O)N2CCC(C)(C)C2)C1 (stereo not drawn)")
0.99
>>> readout_number("O=C1c2c(Br)c(Br)c(Br)c(Br)c2C(=O)N1c1ncc[nH]1")
0.7
>>> readout_number("C[C@H](CCC(=O)[O-])[C@H]1CC[C@H]2[C@@H]3[C@@H](O)C[C@@H]4C[C@H](O)CC[C@]4(C)[C@H]3CC[C@]12C.[Na+]")
0.4
>>> readout_number("CCC(=O)N[C@H]1CC[C@@H](C(=O)N(C)c2ccc(-c3nc4ccccc4o3)cc2)C1")
0.68
